Taken from PubChem BioAssay (EPA / NIEHS).

- Read-out: Monocyte Chemoattractant Protein-1 (MCP1), CCL2 (gene 6347)
- test protocol: BSK_hDFCGF_MCP1: BioMAP Diversity Plus: hDFCGF Assay for Monocyte Chemoattractant Protein-1 (MCP1) Biomarker Activity (AID 2284285)
- conditions used: primary human foreskin fibroblasts
Active and inactive are the calls of the source. How the source made its calls: active means hit-call score of the fitted dose curve at least 0.9, where 1 is the maximum; inactive means score below 0.9.
quantity: outcome

compound	meas value
CCC(=O)OCc1ccccc1	inactive
CC(=O)OCCC(C)CC(C)(C)C (stereo unspecified)	inactive
C=CCOC(=O)CCC1CCCCC1	inactive
NCCNCCN	inactive
C[C@H]1C[C@@H]2[C@H]([C@@H](O)C[C@@]3(C)[C@H]2CC[C@]3(O)C(=O)CO)[C@@]2(C)C=CC(=O)C=C12	inactive

Here is another compound to look at.
Request: Please look up its outcome: Cc1cc(C2(c3cc(C)c(O)cc3C)OS(=O)(=O)c3ccccc32)c(C)cc1O
Response: inactive

* * *

- Read-out: Interleukin-8 (IL8), CXCL8 (gene 3576)
- test protocol: BSK_CASM3C_IL8: BioMAP Diversity Plus: CASM3C Assay for Interleukin-8 (IL8) Biomarker Activity (AID 2283042);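 further: IL-8 protein level quantified by ELISA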
- conditions used: primary human coronary artery smooth muscle cells; actives raise or lower the signal
Active and inactive are the calls of the source. How the source made its calls: active means hit-call score of the fitted dose curve at least 0.9, where 1 is the maximum; inactive means score below 0.9.
Valid outcomes are listed here; reply with one: active, inactive

molecule	assigned category
C#C[C@]1(O)CC[C@H]2[C@@H]3CCC4=Cc5oncc5C[C@]4(C)[C@H]3CC[C@@]21C	inactive
CC(C)Oc1ccccc1O	inactive
CC(C)c1ccc(C(C)C)cc1	inactive

Request: How did this test come out for O=C(O)c1cn(C2CC2)c2cc(N3CCNCC3)c(F)cc2c1=O ?
Response: inactive

Request: How did this test come out for O=C(O)C[C@H](O)C[C@H](O)/C=C/c1c(C2CC2)nc2ccccc2c1-c1ccc(F)cc1 ?
Response: inactive

Request: How did this test come out for COC(=O)c1ccc(C)cc1 ?
Response: inactive

Request: How did this test come out for BrC1CCC(Br)C(Br)CCC(Br)C(Br)CCC1Br (centres undefined) ?
Response: inactive

* * *

- test protocol: CCTE_Shafer_MEA_acute_LDH: CCTE's Lactate Dehydrogenase Assay for Cytotoxicity in the Neural Acute Assay, Shafer Lab (AID 2284086);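 further: active means LDH release rises above DMSO vehicle level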
Results filed as inconclusive are left out. Calls of active or inactive are those of the source. The calls were made as follows: active = hit-call score of the fitted dose curve at least 0.9, where 1 is the maximum; inconclusive = response in the unintended direction; inactive = score below 0.9.
quantity: outcome

Example compounds with recorded outcome:
compound	outcome
OC1OC[C@@H](O)[C@H](O)[C@H]1O (some centres not stated)	inactive
CC(C)(COC(=O)c1ccccc1)COC(=O)c1ccccc1	inactive
NCCNCCN	inactive
C[C@H]1C[C@@H]2[C@H]([C@@H](O)C[C@@]3(C)[C@H]2CC[C@]3(O)C(=O)CO)[C@@]2(C)C=CC(=O)C=C12	inactive

Request: Please look up its outcome: COc1cc(C=O)ccc1OC(=O)C(C)C
Response: inactive

Request: Please look up its outcome: C=CCOC(=O)CCC1CCCCC1
Response: inactive

Request: Please look up its outcome: Cc1cc(C2(c3cc(C)c(O)cc3C)OS(=O)(=O)c3ccccc32)c(C)cc1O
Response: inactive

* * *

- assayed system: Nuclear receptor subfamily 1 group I member 2 (Homo sapiens) (UniProt O75469)
- Sequence (O75469 whole entry, looked up): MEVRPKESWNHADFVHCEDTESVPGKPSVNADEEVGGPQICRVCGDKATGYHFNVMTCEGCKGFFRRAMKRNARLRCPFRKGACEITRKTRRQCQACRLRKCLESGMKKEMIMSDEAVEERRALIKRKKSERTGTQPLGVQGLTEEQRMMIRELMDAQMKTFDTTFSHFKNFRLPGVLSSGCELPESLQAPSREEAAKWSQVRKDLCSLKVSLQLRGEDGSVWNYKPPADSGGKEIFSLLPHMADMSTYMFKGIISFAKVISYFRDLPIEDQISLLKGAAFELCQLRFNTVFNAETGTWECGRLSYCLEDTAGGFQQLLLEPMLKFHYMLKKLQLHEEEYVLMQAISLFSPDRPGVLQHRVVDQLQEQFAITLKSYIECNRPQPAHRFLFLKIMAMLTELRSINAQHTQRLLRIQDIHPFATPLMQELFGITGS
- test protocol: ATG_PXR_TRANS: Attagene TRANS-FACTORIAL HepG2 Assay for human Pregnane X Receptor (PXR) (AID 2283008)
- Procedure: ATG_TRANS is a cell-based, multiplexed-readout assay that uses HepG2, a human liver cell line, with measurements taken at 24 hours after chemical dosing in a 24-well plate.ATG_PXR_TRANS is one of 30 assay component(s) measured or calculated from the ATG_TRANS assay. […] This assay endpoint, ATG_PXR_TRANS, was analyzed in the positive analysis fitting direction relative to DMSO as the negative control and baseline of activity. […]
Results filed as inconclusive are left out. Calls of active or inactive are those of the source. Rule for the calls: active = hit-call score of the fitted dose curve at least 0.9, where 1 is the maximum; inconclusive = response in the unintended direction; inactive = score below 0.9.
Valid outcomes are listed here; reply with one: active, inactive

compound	assigned category
OCCOc1cccc(OCCO)c1	inactive
CC(C)c1ccc(C(C)C)cc1	inactive

Now turn to the next compound.
Request: How did this test come out for FC1(F)C(F)(F)C(F)(F)C2(F)C(F)(C1(F)F)C(F)(F)C(F)(F)C1(F)C(F)(F)C(F)(F)C(F)(F)C(F)(F)C12F (centres undefined) ?
Response: inactive

* * *

- Read-out: Transforming growth factor beta 1 (TGFb1), TGFB1 (gene 7040)
- test protocol: BSK_BE3C_TGFb1: BioMAP Diversity Plus: BE3C Assay for Transforming growth factor beta 1 (TGFb1) Biomarker Activity (AID 2283036)
- conditions used: primary human bronchial epithelial cells; actives raise or lower the signal
Activity calls are given as the source filed them. Rule for the calls: active = hit-call score of the fitted dose curve at least 0.9, where 1 is the maximum; inactive = score below 0.9.
Valid outcomes are listed here; reply with one: active, inactive

compound	assigned category
C=C(C)C(=O)O[C@H]1C[C@@H]2CC[C@@]1(C)C2(C)C	active
Cc1ccc(O)c(C(C)(C)C)c1	inactive

Request: How did this test come out for BrC1CCC(Br)C(Br)CCC(Br)C(Br)CCC1Br (stereo not drawn) ?
Response: inactive

Request: How did this test come out for CN(CCOc1ccc(CC2SC(=O)NC2=O)cc1)c1ccccn1 (stereo not drawn) ?
Response: inactive

Request: How did this test come out for C=C[Si](OCC)(OCC)OCC ?
Response: inactive

Request: How did this test come out for O=C(O)c1cn(C2CC2)c2cc(N3CCNCC3)c(F)cc2c1=O ?
Response: inactive

Request: How did this test come out for CC(C)(COC(=O)c1ccccc1)COC(=O)c1ccccc1 ?
Response: inactive

Request: How did this test come out for Cc1ccc2n[nH]nc2c1 ?
Response: inactive

Request: How did this test come out for CCCCC(CC)COC(=O)/C=C\C(=O)OCC(CC)CCCC (stereo not drawn) ?
Response: inactive

Request: How did this test come out for CCCCC/C=C/C=C/C=O ?
Response: inactive

* * *

- test protocol: ATG_Sox_CIS: Attagene CIS-FACTORIAL HepG2 Assay for human SRY-box transcription factor (SOX) (AID 2282960)
- conditions used: HepG2 Attagene cis-factorial SOX reporter, mRNA; actives raise or lower the signal
The source made the active and inactive calls. How the source made its calls: active means hit-call score of the fitted dose curve at least 0.9, where 1 is the maximum; inactive means score below 0.9.
Valid outcomes are listed here; reply with one: active, inactive

compound	assigned category
COc1cccc(OC)c1	inactive
O=CCCc1ccccc1	inactive
CC(=O)c1c(C)cc(C(C)(C)C)cc1C	inactive
CCCCOCCOCCSC#N	inactive
C=CCOc1nc(OCC=C)nc(OCC=C)n1	inactive
CCc1ccc(C=O)cc1	inactive

Request: How did this test come out for COc1ccc(Cl)cc1C ?
Response: inactive

Request: How did this test come out for C=CC(C)(O)CCC=C(C)CCC=C(C)C (stereo not given) ?
Response: active

Request: How did this test come out for CCCCCCCCCCC(CO)CCCCCCCC (stereo not given) ?
Response: inactive

* * *

- test protocol: ATG_MRE_CIS: Attagene CIS-FACTORIAL HepG2 Assay for human Metal Responsive Element (MRE) (AID 2282954)
- conditions used: HepG2 MRE cis-reporter transcription, Attagene multiplex; actives raise or lower the signal
The source made the active and inactive calls. How the source made its calls: active means hit-call score of the fitted dose curve at least 0.9, where 1 is the maximum; inactive means score below 0.9.
Valid outcomes are listed here; reply with one: class 1 for active, class 0 for inactive

Use these answered entries as a reference point.
compound	assigned category
CC1(C)[C@H]2CC[C@]1(C)[C@H](O)C2	class 0
Cc1ncc([N+](=O)[O-])n1C	class 0
O=C(Nc1ccccc1)c1cc([N+](=O)[O-])ccc1Cl	class 1
C[C@]12CC[C@H]3[C@@H](CCC4=CC(=O)CC[C@@]43C)[C@@H]1CC[C@@H]2C(=O)CO	class 1
CCCCCCCCC=O	class 0

Request: How did this test come out for CN(C)CCOCCN(C)C ?
Response: class 0

Request: How did this test come out for O=C1O[C@@H]2[C@@H](O)[C@H](O)O[C@@H]2[C@H]1O ?
Response: class 0

Request: How did this test come out for OCCOc1cccc(OCCO)c1 ?
Response: class 0

Request: How did this test come out for O=C(O)c1snc(Cl)c1Cl ?
Response: class 1

Request: How did this test come out for COc1cc(C(C)(C)C)c(O)c(C(C)(C)C)c1 ?
Response: class 0

Request: How did this test come out for Cc1ccc2sc3cccc(C)c3c2c1 ?
Response: class 0

Request: How did this test come out for CCCC/C=C\CCCCCCCCCC=O ?
Response: class 0

Request: How did this test come out for C=C(C)C1CCC(C)CC1O (centres undefined) ?
Response: class 0

Request: How did this test come out for CCCCCCCCCCCCCCCC(=O)O ?
Response: class 0

* * *

- Read-out: Monocyte Chemoattractant Protein-1 (MCP1), CCL2 (gene 6347)
- test protocol: BSK_SAg_MCP1: BioMAP Diversity Plus: SAg Assay for Monocyte Chemoattractant Protein-1 (MCP1) Biomarker Activity (AID 2283090)
- conditions used: primary human HUVEC with PBMC; actives raise or lower the signal
Calls of active or inactive are those of the source. Rule for the calls: active = hit-call score of the fitted dose curve at least 0.9, where 1 is the maximum; inactive = score below 0.9.
Valid outcomes are listed here; reply with one: active, inactive

Use these answered entries as a reference point.
compound	assigned category
O=C(O)c1ccc([N+](=O)[O-])cc1	inactive
CC(C)(COC(=O)c1ccccc1)COC(=O)c1ccccc1	inactive
CC(=O)[C@H]1CC[C@H]2[C@@H]3CC=C4C[C@@H](O)CC[C@]4(C)[C@H]3CC[C@]12C	inactive
O=C=NC1CCC(CC2CCC(N=C=O)CC2)CC1 (stereo unspecified)	inactive
CCCCC/C=C/C=C/C=O	active

Request: How did this test come out for BrC1CCC(Br)C(Br)CCC(Br)C(Br)CCC1Br (stereo unspecified) ?
Response: inactive

Request: How did this test come out for C#C[C@]1(O)CC[C@H]2[C@@H]3CCC4=Cc5oncc5C[C@]4(C)[C@H]3CC[C@@]21C ?
Response: inactive

Request: How did this test come out for CC(=O)Nc1ccccc1O ?
Response: inactive

Request: How did this test come out for CCCCCCCCC=O ?
Response: inactive

Request: How did this test come out for O=C(O)c1cn(-c2ccc(F)cc2)c2cc(N3CCNCC3)c(F)cc2c1=O ?
Response: inactive

Request: How did this test come out for CCCCCCCCCCCCCCCCCC(=O)OCC(CC)CCCC (stereo unspecified) ?
Response: inactive

Request: How did this test come out for C=CCOC(=O)CCC1CCCCC1 ?
Response: inactive
